Multiple publications report IC50 for UniProt Q8IYT8; what follows is a combined list.

// known answers, use as guide
- compound.structure.string: "N[C@@H]1CCCC[C@@H]1NC(=O)c1cc(-c2cnn3cc(N4CCNCC4)cnc23)cs1"
  IC50: "1 to 49 nM"
- compound.structure.string: "O=C1CCCCN1CCCNc1nc(Nc2ccc(N3CCCNCC3)cc2)ncc1C(F)(F)F"
  IC50: "1 to 25 nM"
- compound.structure.string: "Cc1cc(N2CCN(C)CC2)ncc1Nc1cc(NCCCN2CCCCC2=O)c(C(F)(F)F)cn1"
  IC50: "> 500 nM"
- compound.structure.string: "CCN1CCN(c2ccc(Nc3ncc(C(F)(F)F)c(NCCCN4CCCCC4=O)n3)c(C3CC3)c2)CC1"
  IC50: "1 to 25 nM"
- compound.structure.string: "Cc1nn([C@@H]2CCN(C)C2)cc1Nc1ncc(C(F)(F)F)c(NCCCN2CCCCC2=O)n1"
  IC50: "25 to 100 nM"
- compound.structure.string: "CCc1cc(N2CCN(C)CC2)ccc1Nc1ncc(Br)c(NCCCN2CCCCC2=O)n1"
  IC50: "100 to 500 nM"
- compound.structure.string: "Cc1nn(C2CCN(C(C)C)CC2)cc1Nc1ncc(C(F)(F)F)c(NCCCN2CCCOC2=O)n1"
  IC50: "100 to 500 nM"
- compound.structure.string: "CCN1CCN(c2ccc(Nc3ncc(C(F)(F)F)c(NCCCN4CCOCCC4=O)n3)c(C(C)C)c2)CC1"
  IC50: "100 to 500 nM"
- compound.structure.string: "CCN1CCCN(c2ccc(Nc3ncc(C(F)(F)F)c(NCCCN4CCCCC4=O)n3)cc2)CC1"
  IC50: "1 to 25 nM"
- compound.structure.string: "Cc1nn(C2CCNCC2)cc1Nc1ncc(C(F)(F)F)c(NCCCN2CCCC2=O)n1"
  IC50: "25 to 100 nM"

Query: Entry `Cc1nn(C2CCN(C)CC2)cc1Nc1ncc(C(F)(F)F)c(NCCCN2CCCCC2=O)n1` needs its IC50 filled in; supply it.
Response: 25 to 100 nM

Query: Please look at this compound and report its IC50: `Cc1nn(C2CCN(C3COC3)CC2)cc1Nc1ncc(C(F)(F)F)c(NCCCN2CCCCCC2=O)n1`
Response: 100 to 500 nM

Query: Give reported IC50 value for `CCN1CC[C@H](n2cc(Nc3ncc(C(F)(F)F)c(NCCCN4CCCCC4=O)n3)c(C)n2)C1`
Response: 100 to 500 nM

Query: Give me measured IC50, please, for this compound: `Cc1nn(C2CCNCC2)cc1Nc1ncc(Cl)c(NCCCN2CCCCCC2=O)n1`
Response: 100 to 500 nM

Query: Return value of IC50 for input `CN1CCN(c2ccc(Nc3ncc(C(F)(F)F)c(NCCCN4CCCOCC4=O)n3)c(C3CC3)c2)CC1` , no commentary.
Response: 25 to 100 nM

Query: State its IC50: `CN1CCN(c2ccc(Nc3ncc(Br)c(NCCCNC(=O)C4CCC4)n3)c(C3CC3)c2)CC1`
Response: 100 to 500 nM

----------
Endpoint summary: IC50, system: ULK2 kinase (Homo sapiens, UniProt Q8IYT8), multiple sources combined.

For orientation, consider the following solved cases.
- compound.structure.string: "Cc1nn(C(C)(C)C#N)cc1Nc1ncc(C(F)(F)F)c(NCCCNC(=O)C2CCC2)n1"
  IC50: "500 to 20000 nM"
- compound.structure.string: "Cc1cc(N2CCOCC2)ncc1Nc1ncc(C(F)(F)F)c(NCCCN2CCCCC2=O)n1"
  IC50: "> 500 nM"
- compound.structure.string: "Cc1nn(C2CCN(C(C)C)CC2)cc1Nc1ncc(C(F)(F)F)c(NCCCN2CCCOCC2=O)n1"
  IC50: "> 500 nM"
- compound.structure.string: "Cc1nn(C2CCN(C)CC2)cc1Nc1ncc(Cl)c(NCCCN2CCCCCC2=O)n1"
  IC50: "100 to 500 nM"

# input for lookup
Query: Provide IC50, system ULK2 kinase (Homo sapiens, UniProt Q8IYT8), entry `Cc1cc(N2CCN(C3CCC3)CC2)ccc1Nc1ncc(C(F)(F)F)c(NCCCN2CCCCC2=O)n1`
Response: 1 to 25 nM

----------
pIC50: −log10 of the molar value.
Record set: pIC50 | ULK2 kinase (Homo sapiens) | literature, multiple sources.

Some solved cases for reference:
- compound.structure.string: "CCc1cc(N2CCN(C)CC2)ccc1Nc1ncc(C(F)(F)F)c(NCCCNC(=O)C2CCC2)n1"
  pIC50: "7.00 to 7.60"
- compound.structure.string: "CC(C)Oc1cc(N2CCN(C)CC2)ccc1Nc1ncc(Cl)c(NCCCNC(=O)C2CCC2)n1"
  pIC50: "4.70 to 6.30"
- compound.structure.string: "CCN1CC[C@H](n2cc(Nc3ncc(Br)c(NCCCN4CCCCC4=O)n3)c(C)n2)C1"
  pIC50: "< 6.30"

Query: Determine from records and report pIC50 for `Cc1nn([C@@H]2CCN(C)C2)cc1Nc1ncc(C(F)(F)F)c(NCCCN2CCCOCC2=O)n1`
Response: 6.30 to 7.00

Query: Return reported pIC50. Input compound: `Cc1cc(C2CCNCC2)ccc1Nc1ncc(C(F)(F)F)c(NCCCN2CCCCC2=O)n1`
Response: 6.30 to 7.00

Query: In one line, give reported pIC50 of the entry `CC(C)(CO)NC(=O)c1cc(-c2cnn3cc(N4CCN(C(=O)OC(C)(C)C)CC4)cnc23)cs1` .
Response: 6.30 to 7.00

Query: Answer with the recorded pIC50 for the compound listed here: `O=C1OCCCN1CCCNc1nc(Nc2ccc(N3CCNCC3)cc2C2CC2)ncc1C(F)(F)F`
Response: 7.00 to 7.60
